Form field: IC50 (one value per entry).
# test.target: NRAS WT (Homo sapiens, UniProt P01111+P62937)
# Construct: His6
# Sequence (P01111 whole entry): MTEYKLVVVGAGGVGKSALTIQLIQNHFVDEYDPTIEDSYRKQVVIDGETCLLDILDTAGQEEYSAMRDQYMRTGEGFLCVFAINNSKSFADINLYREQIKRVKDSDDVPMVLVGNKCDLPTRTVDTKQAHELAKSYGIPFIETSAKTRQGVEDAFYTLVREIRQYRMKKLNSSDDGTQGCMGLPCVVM
# Sequence (P62937 whole entry): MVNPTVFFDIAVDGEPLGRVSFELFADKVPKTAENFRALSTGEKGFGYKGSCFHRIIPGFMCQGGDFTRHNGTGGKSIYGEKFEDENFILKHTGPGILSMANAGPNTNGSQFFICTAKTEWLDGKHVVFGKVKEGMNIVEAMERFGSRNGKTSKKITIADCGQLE
# protocol.text: Ras-Raf disruption/FRET/MOA assay, NRAS WT
# Format: biochemical
# condition.context: NRAS WT; read-out: NRAS WT FRET data IC50

Query: IC50; subject: CCn1c(-c2cccnc2[C@H](C)OC)c2c3cc(ccc31)-c1csc(n1)C[C@H](NC(=O)[C@H](C(C)C)N(C)C(=O)N1CCC[C@H](N(C)C(=O)[C@H]3CN3)C1)C(=O)N1CCC[C@H](N1)C(=O)OCC(C)(C)C2 (atropisomer, axis not shown)
100 to 1000 nM

Query: IC50; subject: `CCn1c(-c2cccnc2[C@H](C)OC)c2c3cc(ccc31)-c1cc(O)cc(c1)C[C@H](NC(=O)[C@H](C(C)C)N1CCCC3(CN(C(=O)[C@H]4CN4)C3)C1=O)C(=O)N1CCC[C@H](N1)C(=O)OCC(C)(C)C2`
10 to 100 nM

Query: IC50; subject: `CCn1c(-c2cccnc2[C@H](C)OC)c2c3cc(ccc31)-c1cc(O)cc(c1)C[C@H](NC(=O)[C@H](C(C)C)N1CO[C@]3(CCN(C(=O)[C@H]4CN4)C3)C1=O)C(=O)N1CCC[C@H](N1)C(=O)OCC(C)(C)C2`
10 to 100 nM

Attention now turns to another entry.
Query: IC50; subject: `CCn1c(-c2cccnc2[C@H](C)OC)c2c3cc(ccc31)-c1cc(O)cc(c1)C[C@H](NC(=O)[C@H](C(C)C)N1CO[C@@]3(CCN(C(=O)[C@H]4CN4)C3)C1=O)C(=O)N1CCC[C@H](N1)C(=O)OCC(C)(C)C2`
100 to 1000 nM
